test system: NCI-H510 multicellular tumor spheroid growth, % test/control; assay: Anticancer human tumor NCI-H510 cell line growth inhibition [Asc]; details: second compound 1 µM; first compound 10 µM; stronger effect = lower value;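 further: spheroids exposed to agents for 7 days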;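 on viability, T/C: 100% = DMSO vehicle control wells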
Answer each item with its documented viability, T/C.

Your task in this section: give viability, T/C for each listed record.
1. C=CC(=O)N1CCN(c2nc(=O)n(-c3c(C)ccnc3C(C)C)c3nc(-c4c(O)cccc4F)c(F)cc23)C(C)C1 (configuration not stated) + CNC(C)C(=O)NC1CN(S(=O)(=O)c2cccc(S(=O)(=O)N3CCC4CCC(C(=O)NC(c5ccccc5)c5ccccc5)N4C(=O)C(NC(=O)C(C)NC)C3)c2)CCC2CCC(C(=O)NC(c3ccccc3)c3ccccc3)N2C1=O
2. C#Cc1c(F)ccc2cc(O)cc(-c3ncc4c(N5CC6CCC(C5)N6)nc(OCC56CCCN5CC(F)C6)nc4c3F)c12 (configuration not stated) + Cc1c(S(C)(=O)=O)c(-c2cc(F)cc(N3CCN(c4ccc(NS(=O)(=O)c5ccc(NC(CCN6CCC(C(=O)OCCCP(=O)(O)O)CC6)CSc6ccccc6)c(S(=O)(=O)C(F)(F)F)c5)cc4)CC3)c2)c(-c2ccc(Cl)cc2)n1C(C)C

Reply |
["110%", "73%"]

* * *

system: NCI-H510 multicellular tumor spheroid growth, % test/control; test: Anticancer human tumor NCI-H510 cell line growth inhibition [Asc]; details: second compound 0.316 µM; first compound 0.1 µM; active = viability on the fitted dose curve at most 10% of control; inactive = the rest;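 further: spheroids exposed to agents for 7 days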
Mark one answer only. Choices: label 1 for active, label 0 for inactive

Examples from the recorded data:
molecule="Cn1ncnc1[C@H]1c2n[nH]c(=O)c3cc(F)cc(c23)N[C@@H]1c1ccc(F)cc1 + Cc1c(S(C)(=O)=O)c(-c2cc(F)cc(N3CCN(c4ccc(NS(=O)(=O)c5ccc(NC(CCN6CCC(C(=O)OCCCP(=O)(O)O)CC6)CSc6ccccc6)c(S(=O)(=O)C(F)(F)F)c5)cc4)CC3)c2)c(-c2ccc(Cl)cc2)n1C(C)C" classification="label 1"
molecule="O=C(c1ccc(F)c(F)c1Nc1ccc(I)cc1F)N1CC(O)([C@@H]2CCCCN2)C1 + CNC(C)C(=O)NC1CN(S(=O)(=O)c2cccc(S(=O)(=O)N3CCC4CCC(C(=O)NC(c5ccccc5)c5ccccc5)N4C(=O)C(NC(=O)C(C)NC)C3)c2)CCC2CCC(C(=O)NC(c3ccccc3)c3ccccc3)N2C1=O" classification="label 0"

Moving on to the next molecule.
Ask | Any idea what this test logged for C#Cc1c(F)ccc2cc(O)cc(-c3ncc4c(N5CC6CCC(C5)N6)nc(OCC56CCCN5CC(F)C6)nc4c3F)c12 (stereo not drawn) + CNC(C)C(=O)NC1CN(S(=O)(=O)c2cccc(S(=O)(=O)N3CCC4CCC(C(=O)NC(c5ccccc5)c5ccccc5)N4C(=O)C(NC(=O)C(C)NC)C3)c2)CCC2CCC(C(=O)NC(c3ccccc3)c3ccccc3)N2C1=O ?
Reply | label 0

* * *

system: NCI-H510 multicellular tumor spheroid growth, % test/control; assay: Anticancer human tumor NCI-H510 cell line growth inhibition [Asc]; conditions: curve of first compound; second compound 1 µM;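 further: spheroids exposed to agents for 7 days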
Answer each item with its documented pIC50.
Give bare numbers, as −log10 of the molar value.

compound="Cn1ncnc1[C@H]1c2n[nH]c(=O)c3cc(F)cc(c23)N[C@@H]1c1ccc(F)cc1 + Cc1c(S(C)(=O)=O)c(-c2cc(F)cc(N3CCN(c4ccc(NS(=O)(=O)c5ccc(NC(CCN6CCC(C(=O)OCCCP(=O)(O)O)CC6)CSc6ccccc6)c(S(=O)(=O)C(F)(F)F)c5)cc4)CC3)c2)c(-c2ccc(Cl)cc2)n1C(C)C" assay_target="NCI-H510 multicellular tumor spheroid growth, % test/control" experimental_value=8.32

Now for a further compound.
Ask | Param item = C=C(F)C(=O)N1CCN(c2nc(OCC3CCCN3C)nc3c2CCN(c2cccc4cccc(Cl)c24)C3)CC1CC#N (stereo not given) + CNC(C)C(=O)NC1CN(S(=O)(=O)c2cccc(S(=O)(=O)N3CCC4CCC(C(=O)NC(c5ccccc5)c5ccccc5)N4C(=O)C(NC(=O)C(C)NC)C3)c2)CCC2CCC(C(=O)NC(c3ccccc3)c3ccccc3)N2C1=O ; retrieve measured pIC50.
Reply | 5.74

* * *

Answer each item with its documented viability, T/C.
system: NCI-H510 multicellular tumor spheroid growth, % test/control; test: Anticancer human tumor NCI-H510 cell line growth inhibition [Asc]; details: second compound 0.316 µM; first compound 10 µM; stronger effect = lower value;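 further: spheroids exposed to agents for 7 days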;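 on viability, T/C: 100% = DMSO vehicle control wells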
Answers are plain numbers, in %.

Please review the following examples before continuing.
molecule="C=C(F)C(=O)N1CCN(c2nc(OCC3CCCN3C)nc3c2CCN(c2cccc4cccc(Cl)c24)C3)CC1CC#N (stereo not drawn) + CNC(C)C(=O)NC1CN(S(=O)(=O)c2cccc(S(=O)(=O)N3CCC4CCC(C(=O)NC(c5ccccc5)c5ccccc5)N4C(=O)C(NC(=O)C(C)NC)C3)c2)CCC2CCC(C(=O)NC(c3ccccc3)c3ccccc3)N2C1=O" assay_target="NCI-H510 multicellular tumor spheroid growth, % test/control" measurement_unit=% experimental_value=0.13
molecule="C#Cc1c(F)ccc2cc(O)cc(-c3ncc4c(N5CC6CCC(C5)N6)nc(OCC56CCCN5CC(F)C6)nc4c3F)c12 (stereo not drawn) + CNC(C)C(=O)NC1CN(S(=O)(=O)c2cccc(S(=O)(=O)N3CCC4CCC(C(=O)NC(c5ccccc5)c5ccccc5)N4C(=O)C(NC(=O)C(C)NC)C3)c2)CCC2CCC(C(=O)NC(c3ccccc3)c3ccccc3)N2C1=O" assay_target="NCI-H510 multicellular tumor spheroid growth, % test/control" measurement_unit=% experimental_value=114

Now for a further molecule.
Ask | Param item = C=CC(=O)N1CCN(c2nc(=O)n(-c3c(C)ccnc3C(C)C)c3nc(-c4c(O)cccc4F)c(F)cc23)C(C)C1 (stereo not drawn) + CNC(C)C(=O)NC1CN(S(=O)(=O)c2cccc(S(=O)(=O)N3CCC4CCC(C(=O)NC(c5ccccc5)c5ccccc5)N4C(=O)C(NC(=O)C(C)NC)C3)c2)CCC2CCC(C(=O)NC(c3ccccc3)c3ccccc3)N2C1=O ; retrieve measured viability, T/C.
Reply | 93.3

* * *

test system: NCI-H510 multicellular tumor spheroid growth, % test/control; assay: Anticancer human tumor NCI-H510 cell line growth inhibition [Asc]; settings: curve of first compound; second compound 0.1 µM;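 further: spheroids exposed to agents for 7 days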
TEST READOUT: IC50

Ask | Param item = O=C(c1cc(Cc2n[nH]c(=O)c3ccccc23)ccc1F)N1CCN(C(=O)C2CC2)CC1 + Cc1c(S(C)(=O)=O)c(-c2cc(F)cc(N3CCN(c4ccc(NS(=O)(=O)c5ccc(NC(CCN6CCC(C(=O)OCCCP(=O)(O)O)CC6)CSc6ccccc6)c(S(=O)(=O)C(F)(F)F)c5)cc4)CC3)c2)c(-c2ccc(Cl)cc2)n1C(C)C ; retrieve measured IC50.
Reply | 1.61 µM

* * *

system: NCI-H510 multicellular tumor spheroid growth, % test/control; assay: Anticancer human tumor NCI-H510 cell line growth inhibition [Asc]; conditions: second compound 3 µM; first compound 0.01 µM; stronger effect = lower value;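 further: spheroids exposed to agents for 7 days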;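 on viability, T/C: 100% = DMSO vehicle control wells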
TEST READOUT: viability, T/C (%)
Answers are plain numbers, in %.

compound="COc1c(OCCCN2CCOCC2)ccc2c3n(c(=NC(=O)c4cnc(N)nc4)nc12)CCN3 + CCN1C(C(=O)NC23CCC(C(=O)O)(CC2)CC3)C(c2cccc(Cl)c2F)C2(C(=O)Nc3cc(Cl)ccc32)C12CCCCC2" test_readout="viability, T/C" measurement_unit=% experimental_value=105
compound="CCN1CCN(Cc2ccc(Nc3ncc(F)c(-c4cc(F)c5nc(C)n(C(C)C)c5c4)n3)nc2)CC1 + CCN1C(C(=O)NC23CCC(C(=O)O)(CC2)CC3)C(c2cccc(Cl)c2F)C2(C(=O)Nc3cc(Cl)ccc32)C12CCCCC2" test_readout="viability, T/C" measurement_unit=% experimental_value=127
compound="O=C(c1ccc(F)c(F)c1Nc1ccc(I)cc1F)N1CC(O)([C@@H]2CCCCN2)C1 + CCN1C(C(=O)NC23CCC(C(=O)O)(CC2)CC3)C(c2cccc(Cl)c2F)C2(C(=O)Nc3cc(Cl)ccc32)C12CCCCC2" test_readout="viability, T/C" measurement_unit=% experimental_value=160
compound="CNC(C)C(=O)NC1CN(S(=O)(=O)c2cccc(S(=O)(=O)N3CCC4CCC(C(=O)NC(c5ccccc5)c5ccccc5)N4C(=O)C(NC(=O)C(C)NC)C3)c2)CCC2CCC(C(=O)NC(c3ccccc3)c3ccccc3)N2C1=O (stereo unspecified) + CCN1C(C(=O)NC23CCC(C(=O)O)(CC2)CC3)C(c2cccc(Cl)c2F)C2(C(=O)Nc3cc(Cl)ccc32)C12CCCCC2" test_readout="viability, T/C" measurement_unit=% experimental_value=92
compound="Cn1ncnc1[C@H]1c2n[nH]c(=O)c3cc(F)cc(c23)N[C@@H]1c1ccc(F)cc1 + CCN1C(C(=O)NC23CCC(C(=O)O)(CC2)CC3)C(c2cccc(Cl)c2F)C2(C(=O)Nc3cc(Cl)ccc32)C12CCCCC2" test_readout="viability, T/C" measurement_unit=% experimental_value=64

Ask | Param item = NC1CCC(NC2CC2c2ccccc2)CC1 (stereo unspecified) + CCN1C(C(=O)NC23CCC(C(=O)O)(CC2)CC3)C(c2cccc(Cl)c2F)C2(C(=O)Nc3cc(Cl)ccc32)C12CCCCC2 ; retrieve measured viability, T/C.
Reply | 75.2

Data credit: PubChem BioAssay AID1963438
